Numbers sourced from ChEMBL document CHEMBL3507680.

- Method notes: Human HepG2 cell viability assay in 384 well format
- Assay type: toxicity, cell-based
- Set-up: dose 125 nL, time 70.5 hour; concentration not given beside the values
- Measurement parameters: HepG2 cells, read-out: Inhibition
Property: cytotoxicity at 70.5 h (%)
Report only the number, with the unit % understood.

{"columns": ["Compound", "cytotoxicity at 70.5 h / %"],
 "data": [
  ["CCN1CC2(CCNCC2)COc2ccccc2S1(=O)=O", -15.6],
  ["CCN1CC(c2ccccc2)CC2(CCN(Cc3ncc[nH]3)CC2)C1 (stereo not given)", -9.77],
  ["CSCC(=O)NC1CCN(C(C)c2ccccc2)CC1 (stereo not given)", -6.02]
]}

Fill in the blank: the reported cytotoxicity at 70.5 h of Cn1ccnc1-c1ccc(NCC2COc3ccccc3O2)nn1 (stereo not given) is ____.
1.13

Fill in the blank: the reported cytotoxicity at 70.5 h of Cc1nccn1-c1nccnc1C1CCN(Cc2ccc(F)cc2)CC1 is ____.
24.1
